Test system: 8226/Dox1V cells
experiment: Drug resistance and cytotoxicity MTT assay, 8226/Dox1V
Format: cell-based, human
test conditions: 8226/Dox1V, 96 hours
pIC50: −log10 of the molar value.
endpoint label: pIC50

structure smiles string: Cc1c2ccncc2c(C)c2c1[nH]c1ccc(OCCN(C)C)cc12
test value: 6.88

----------
System: 8226/Dox1V cells
experiment: Drug resistance and cytotoxicity MTT assay, 8226/Dox1V
Type: cell-based, human
test conditions: Homo sapiens, 8226/Dox1V, 96 hours
pIC50: −log10 of the molar value.
endpoint label: pIC50

compound: COc1cccc2c1C(=O)c1c(O)c3c(c(O)c1C2=O)C[C@@](O)(C(=O)CO)C[C@@H]3O[C@H]1C[C@H](N)[C@H](O)[C@H](C)O1 [Dox, Doxorubicin, reference compound]
tested on: 8226/Dox1V cells
test value: 6.53
